Biological target: T1, human IL-13 variant (R130Q) (human, UniProt P35225 35-146)
T1 construct: called R110Q in the assay descriptions (mature numbering); also called h IL-13v; hIL-13v
T1 sequence (P35225 35-146 limits assumed, stated change not applied): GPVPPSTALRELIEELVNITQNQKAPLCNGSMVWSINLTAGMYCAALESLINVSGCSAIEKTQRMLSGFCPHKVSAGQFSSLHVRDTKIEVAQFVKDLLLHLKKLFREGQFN
Assay: SPR (Biacore), mAb captured, IL-13 as analyte
MEASURED_QUANTITY: kon (M⁻¹ s⁻¹)
// units = M⁻¹ s⁻¹; emit number, no label

Examples with answers:
BINDER | UNIT_OF_MEASUREMENT | kon
1B6 (antibody, V domains shown) VH: QVQLKESGPGLVAPSQSLSITCTVSGFSLTGYGVNWVRQPPGKGLEWLGMIWGDERIDYNSALKSRLSITKDNSKSQVFLKMNSLQTDDTGRYFCARDGYFPYAMDYWGQGTSVTVSS VL: NIVLTQSPASLAVSLGQRATISCRASETVDSYGKSYLHWYQQKPGQPPKLLIYLASNLESGVPARFSGSGSRTDFTLIIDPVEADDAATYYCQQNNEGPRTFGGGTKLEIKR | M⁻¹ s⁻¹ | 1.06e+06
21D9 (antibody, V domains shown) VH: QVQLQQSGDDLVKPGASVKLSCKASGYTFTSYWINWIKQRPGQGLEWIGHIAPGSGETYDNEMFKDKAKLTVDTSSNTAYIHLSSLSSEDSAVYFCARGSFTFFYAMDYWGQGTSVTVSS VL: DVLMTQTPLSLPVSLGDQASISCRSSQNIVHSNGKTYLEWYLQRPGQSPKLLIYKVSNRFSGVPDRFSGSGSGTDFTLKISRVEAEDLGVYYCFQGSHVPYTFGGGTKLEIKR | M⁻¹ s⁻¹ | 831000

Please find the next binder below.
Looking up 6C8 (antibody, V domains shown) VH: QVQLKESGPGLVAPSQSLSITCTVSEFSLTGSSVNWVRQPPGKGLEWLGMIWGDGRIDYNSALKSRLSISKDNSKSQVFLKMNSLQTDDTARYYCARDGYYPYAMNYWGQGTSVTVSS VL: NIVLTQSPASLAVSLGQRATISCRASESVDSYGNSFMHWYQQKPGQPPKLLIYLASNLESGVPARFSGSGSRADFTLTIDPVEADDAATYYCQQNNENPRTFGGGTKLEIKR , I see its kon listed as 978000
